# System: P. falciparum 3D7
# PROCEDURE SUMMARY: DAPI stain fluorescent high content imaging assay, P. falciparum 3D7 (confirmatory screen, Avery)
# CONDITION INFO: Plasmodium falciparum, 3D7, read-out: percent_inh @ 5 uM
Consider the following molecules; for each one, report its inhibition of growth at 5 µM.
The figure you give is taken to be in %; do not add the unit.

Incoming: Give the measured inhibition of growth at 5 µM of `CCn1c(CN2CCN(Cc3ccccc3)CC2)nc2cc(NC(=O)c3cccs3)ccc21` .
Outgoing: 97

Incoming: Here is the next molecule: `CC(C)(C)c1ccc2c(c1)CN(Cc1ccc(Cl)cc1)CO2`
Outgoing: 98

Incoming: Here is the next molecule: COCCN(C(=O)Cc1cccs1)C(C(=O)NCc1ccc(OC)cc1)c1ccc(C(C)C)cc1 (centres unmarked)
Outgoing: 92

Incoming: Here is the next molecule: CC(C)c1ccc(CNCC(O)c2ccccc2)cc1 (centres unmarked)
Outgoing: 96

Incoming: Here is the next molecule: `CCN(CC)c1ccc(NC(=O)c2cccs2)cc1`
Outgoing: 88

Incoming: Here is the next molecule: CCOc1ccc(CN2CCN(CC(O)COc3ccc(OCC(O)CN4CCN(Cc5ccc(OCC)cc5)CC4)cc3)CC2)cc1 (centres unmarked)
Outgoing: 97

Incoming: Here is the next molecule: `Nc1ccc(-c2nc3cc(Oc4ccc(Oc5ccc6[nH]c(-c7ccc(N)cc7)nc6c5)cc4)ccc3[nH]2)cc1`
Outgoing: 97

Incoming: Here is the next molecule: `Cc1cc(NCCN2CCCCC2)c2ccc3ccccc3c2n1`
Outgoing: 99

Incoming: Here is the next molecule: `Cn1c(=O)n(C)c2cc(CNCCNc3ccnc4cc(Cl)ccc34)ccc21`
Outgoing: 90

Incoming: Here is the next molecule: `CCOc1ccc2c(c1)CN(Cc1ccc(Cl)cc1)CO2`
Outgoing: 97

Incoming: Here is the next molecule: `CCCc1c(C)nc2ccccc2c1O`
Outgoing: 88

Incoming: Here is the next molecule: `COc1ccc2c(=O)cc(C(Cl)(Cl)Cl)oc2c1`
Outgoing: 94

Incoming: Here is the next molecule: `CCCCc1ccc(NS(=O)(=O)c2cc3c4c(c2)CCN4C(=O)CC3)cc1`
Outgoing: 96

Incoming: Here is the next molecule: `COc1ccc(OC)c(C2C3=C(CC(C)(C)CC3=O)N(c3ccc(Cl)c(Cl)c3)C3=C2C(=O)CC(C)(C)C3)c1`
Outgoing: 90

Incoming: Here is the next molecule: `COCCNC(=O)c1ccc(OC2CCN(Cc3ccc(F)c(F)c3)CC2)c(Cl)c1`
Outgoing: 91

Incoming: Here is the next molecule: `CCN1CCN(c2cc(C)c3cc(NC(=O)c4ccc(OC)c(OC)c4)ccc3n2)CC1`
Outgoing: 99

Incoming: Here is the next molecule: `CCCCN(CCCC)S(=O)(=O)c1ccc(NC(=O)c2ccco2)cc1`
Outgoing: 78

Incoming: Here is the next molecule: `FC(F)(F)c1ccc(Nc2nnnc3ccccc23)cc1`
Outgoing: 77

Incoming: Here is the next molecule: `CCCc1c(CC)c(=N)c2ccccc2n1C`
Outgoing: 69

Incoming: Here is the next molecule: CCCCC(O)(c1ccc(Cl)cc1)C(CN1CCOCC1)c1ccc(Cl)cc1 (centres unmarked)
Outgoing: 98

Incoming: Here is the next molecule: `CCc1c(C)c(=N)c2ccccc2n1C`
Outgoing: 76

Incoming: Here is the next molecule: `Oc1c2c(nc3cc(-c4ccccc4)nn13)CCCC2`
Outgoing: 77

Incoming: Here is the next molecule: CCOc1cc(Cl)c(C(C)NC(=O)c2cccc(OC)c2)cc1OCC (centres unmarked)
Outgoing: 98

Incoming: Here is the next molecule: `COc1ccc(C(=O)Nc2nonc2-c2ccc(OC)c(OC)c2)cc1Cl`
Outgoing: 92

Incoming: Here is the next molecule: `COc1ccccc1N=C1C(=O)c2ccccc2C(O)=C1N1CCCCC1`
Outgoing: 98

Incoming: Here is the next molecule: `O=c1cc(NC2CCN(CCCc3ccccc3)CC2)c2cc(Cl)ccc2o1`
Outgoing: 97

Incoming: Here is the next molecule: `c1ccc(-c2ccc(-c3nc4ccccc4[nH]3)cc2)cc1`
Outgoing: 52

Incoming: Here is the next molecule: `Cc1ccc(OCCCCCCNCCO)c(C)c1`
Outgoing: 49

Incoming: Here is the next molecule: `Cc1ccc(Cn2c(N3CCC(C(=O)NCc4cccs4)CC3)nc3ccccc32)cc1`
Outgoing: 73

Incoming: Here is the next molecule: `O=C(Nc1ccc(N2CCN(Cc3ccccc3)CC2)cc1)c1cccs1`
Outgoing: 59

Incoming: Here is the next molecule: `CN1c2ccccc2N(C)C1c1ccc2c(c1)OCO2`
Outgoing: 60

Incoming: Here is the next molecule: `CC(C)OCc1cc(CN2CCN(c3cccc(Cl)c3)CC2)c(O)c2ncccc12`
Outgoing: 98

Incoming: Here is the next molecule: `O=C(NC1CCN(Cc2ccccc2)CC1)c1cc(C(=O)NC2CCN(Cc3ccccc3)CC2)cc(C(=O)NC2CCN(Cc3ccccc3)CC2)c1`
Outgoing: 98

Incoming: Here is the next molecule: `CCN(CC)c1cc(C)c2cc(NC(=O)c3cccc(OC)c3)ccc2n1`
Outgoing: 97

Incoming: Here is the next molecule: COc1ccc(N2CCN(C(CNC(=O)CC(C)(C)C)c3ccc4c(c3)OCO4)CC2)cc1 (centres unmarked)
Outgoing: 95

Incoming: Here is the next molecule: `COc1cccc(NC(=O)[C@H](C(C)C)n2c(=O)[nH]c3ccccc3c2=O)c1`
Outgoing: 99

Incoming: Here is the next molecule: `COCCn1c(C)nc2ccccc2c1=O`
Outgoing: 59

Incoming: Here is the next molecule: `O=C(Nc1ccc(F)c(Cl)c1)Nc1ccc(Cl)c(Cl)c1`
Outgoing: 95
